# studySystem: T1, Anti-CD28 Fab (SEQ ID NOs: 696, 697)
# T1 construct: Biotinylated and captured on neutravidin coated plates in the phage ELISA
# T1 sequence (VH, as listed by the source, chain 1 of 2): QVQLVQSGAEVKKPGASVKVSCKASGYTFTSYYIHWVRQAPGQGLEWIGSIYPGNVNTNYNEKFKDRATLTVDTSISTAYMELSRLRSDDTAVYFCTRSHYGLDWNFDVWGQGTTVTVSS
# T1 sequence (VL, as listed by the source, chain 2 of 2): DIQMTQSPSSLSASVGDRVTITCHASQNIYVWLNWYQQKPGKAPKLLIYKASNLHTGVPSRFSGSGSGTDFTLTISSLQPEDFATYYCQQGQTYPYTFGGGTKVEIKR
# methodDescription: phage ELISA, clonal phage on plate-captured biotinylated anti-CD28 Fab, anti-M13 HRP detection
metricName: Anti-CD28 Fab signal (phage binding ELISA)
No unit in the answer, please; the number alone is enough.

Some solved cases for reference:
YCQGHADEYMAKCL [Phage-978]; 1.58
YCEGHLPQYMVKCL [Phage-977]; 1.58
YCDGHRVEYMAKCL [Phage-972]; 1.58

Inquiry: Item under review: YCDGHAEEYLLKCL [Phage-979] . Reported Anti-CD28 Fab signal (phage binding ELISA)?
Reply text: 1.57

Inquiry: YCEGHSVEYIGKCL [Phage-971] , same question.
Reply text: 1.59

Source listed as patent US20260242478A1.
